Measured values drawn from the supplement of paper PMC8253809 for this set.

System: SUDIPGXIII (diffuse intrinsic pontine glioma line)
Assay: growth inhibition (% activity, log2 RLU normalised to DMSO / staurosporine); higher = more growth inhibition
Conditions: 33 µM
MEASURE NAME: growth inhibition (%)

* Cc1cnc(C(=O)NCCc2ccc(S(=O)(=O)NC(=O)NC3CCCCC3)cc2)cn1 | 0.0328
* CC(COc1ccccc1)N(CCCl)Cc1ccccc1 (stereo not given) | 1.89
* COC(=O)C1=C(C)NC(C)=C(C(=O)OC2CCCN(Cc3ccccc3)C2)C1c1cccc([N+](=O)[O-])c1 (stereo not given) | 2.1
* Cc1nc(-c2ccc(OCC(C)C)c(C#N)c2)sc1C(=O)O | 1.95
* Cc1c(NC(=O)c2cccnc2)c(=O)n(-c2ccccc2)n1C | -1.54
* CCC(=O)O[C@]1(C(=O)SCF)[C@H](C)C[C@H]2[C@@H]3C[C@H](F)C4=CC(=O)C=C[C@]4(C)[C@@]3(F)[C@@H](O)C[C@@]21C | 1.22
* CC1(C)O[C@@H]2[C@@H](CO[C@@]3(COS(N)(=O)=O)OC(C)(C)O[C@@H]23)O1 | -0.599
* CC(C)C(=O)Oc1ccc(CO)cc1[C@H](CCN(C(C)C)C(C)C)c1ccccc1 | 0.403
* N[C@@H]1CN(c2c(F)cc3c(=O)c(C(=O)O)cn([C@@H]4C[C@@H]4F)c3c2Cl)CC12CC2 | -3.35
* CN1CCC(=C2c3ccccc3CCc3cccnc32)CC1 | 1.19
* C=C1c2c(Cl)ccc(O)c2C(=O)C2=C(O)[C@]3(O)C(=O)C(C(N)=O)=C(O)[C@@H](N(C)C)[C@@H]3[C@@H](O)[C@H]12.O=C(O)c1cc(S(=O)(=O)O)ccc1O | 3.19
* Cc1cc(C(C)(C)C)cc(C)c1CC1=NCCN1 | -0.432
* Nc1ccc(S(=O)(=O)Nc2ccccn2)cc1 | -1.65
* Clc1ccc(CSC(Cn2ccnc2)c2ccc(Cl)cc2Cl)cc1 (stereo not given) | 10.8
* C[C@@H]1CN(c2c(F)c(F)c3c(=O)c(C(=O)O)cn(C4CC4)c3c2F)C[C@H](C)N1 | -3.56
* CC(=O)[C@H]1CC[C@H]2[C@@H]3CC=C4C[C@@H](O)CC[C@]4(C)[C@H]3CC[C@]12C | 0.295
* Cc1c(Cl)cccc1Nc1ccccc1C(=O)O | 0.296
* O=C(NCCO[N+](=O)[O-])c1cccnc1 | -0.184
* OC1(c2ccc(Cl)c(C(F)(F)F)c2)CCN(CCCC(c2ccc(F)cc2)c2ccc(F)cc2)CC1 | 51.7
* CCCCCCCCCCCCCCCCCCCCCCO | 1.68
